- Target Or Test System: recombinant CK2A1 (Homo sapiens, UniProt P68400)
- Construct: purchased Invitrogen
- Sequence (P68400 whole entry): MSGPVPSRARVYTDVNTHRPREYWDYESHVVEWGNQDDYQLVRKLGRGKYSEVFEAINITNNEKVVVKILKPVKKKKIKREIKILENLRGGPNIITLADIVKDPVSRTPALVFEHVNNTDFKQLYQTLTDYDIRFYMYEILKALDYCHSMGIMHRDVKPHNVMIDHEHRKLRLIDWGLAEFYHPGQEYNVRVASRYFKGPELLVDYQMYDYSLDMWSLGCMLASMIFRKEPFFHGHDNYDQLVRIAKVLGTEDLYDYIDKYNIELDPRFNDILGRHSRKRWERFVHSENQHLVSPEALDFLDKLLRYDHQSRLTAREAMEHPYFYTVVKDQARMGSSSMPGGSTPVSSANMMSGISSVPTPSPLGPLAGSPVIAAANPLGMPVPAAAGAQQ
- Experiment Description: CK2 kinase assay (CK2A1), [γ-33P]ATP filter-binding
- Assay type: biochemical
- Protocol Conditions: recombinant CK2A1 10 nM, ATP 25 μM, 10 μM peptide substrate, 30° C. 1 h
Assay Readout: IC50 (nM)

N[C@H]1CC[C@H](Nc2cc(NC3CC3)c3ncc(C(=O)Nc4ccnc(F)c4)n3n2)CC1 [Example 25C] :: 86

[P] N#CCC(=O)N[C@H]1CC[C@H](Nc2cc(NC3CC3)c3ncc(C(=O)Nc4ccnc(F)c4)n3n2)CC1 [Example 138]
[Q] NCCN[C@H]1CC[C@H](Nc2cc(NC3CC3)c3ncc(C(=O)Nc4ccnc(F)c4)n3n2)CC1 [Example 526]
[R] N[C@H]1CC[C@H](Nc2cc(N[C@H]3C[C@@H](CO)C3)c3ncc(C(=O)Nc4ccncc4F)n3n2)CC1 [Example 476]
Task for the reader: rank each entry by its IC50, from the minimum upward. Answer format: the labels, in the requested order.
P, R, Q

----------
- Target Or Test System: recombinant CK2A2 (Homo sapiens)
- Construct: purchased Upstate Biotechnology
- Sequence (P19784 whole entry): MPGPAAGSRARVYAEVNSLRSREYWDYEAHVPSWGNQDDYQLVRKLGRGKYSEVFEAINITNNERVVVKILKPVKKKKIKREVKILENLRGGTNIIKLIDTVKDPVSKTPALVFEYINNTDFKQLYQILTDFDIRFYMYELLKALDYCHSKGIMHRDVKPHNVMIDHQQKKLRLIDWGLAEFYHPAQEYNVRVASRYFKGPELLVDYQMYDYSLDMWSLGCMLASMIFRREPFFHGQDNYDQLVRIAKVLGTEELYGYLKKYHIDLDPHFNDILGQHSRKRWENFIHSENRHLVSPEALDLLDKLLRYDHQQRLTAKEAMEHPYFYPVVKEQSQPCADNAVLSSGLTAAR
- Experiment Description: CK2 kinase assay (CK2A2), [γ-33P]ATP filter-binding
- Format: biochemical
- Protocol Conditions: recombinant CK2A2 5 nM, ATP 5 μM, 10 μM peptide substrate, 30° C. 1 h
Assay Readout: IC50 (nM)

The cases that follow already have their IC50 on record.
N#CCC(=O)N[C@H]1CC[C@H](Nc2cc(NC3CC3)c3ncc(C(=O)Nc4ccnc(F)c4)n3n2)CC1 :: 9
CC(=O)Nc1cccc(NC(=O)c2cnc3c(NC4CC4)cc(N[C@H]4CC[C@H](N)CC4)nn23)c1 :: 4390
O=C(Nc1ccncc1F)c1cnc2c(NC3CC3)cc(N[C@H]3CC[C@H](NCC(O)CO)CC3)nn12 (some centres unmarked) :: 4
CNC(C)(C)C(=O)N[C@H]1CC[C@H](Nc2cc(NC3CC3)c3ncc(C(=O)Nc4ccnc(Cl)c4)n3n2)CC1 :: 2.1
O=C(Nc1ccnc(Cl)c1)c1cnc2c(NC3CC3)cc(N[C@H]3CC[C@H](NCCO)CC3)nn12 :: 3
NCCCC(=O)N[C@H]1CC[C@H](Nc2cc(NC3CC3)c3ncc(C(=O)Nc4ccnc(F)c4)n3n2)CC1 :: 70
CC(C)CN[C@H]1CC[C@H](Nc2cc(NC3CC3)c3ncc(C(=O)Nc4ccnc(Cl)c4)n3n2)CC1 :: 42
N[C@H]1CC[C@H](Nc2cc(Nc3ccc(CN4CCOCC4)cc3)c3ncc(C(=O)Nc4ccncc4)n3n2)CC1 :: 47
COCC(=O)N[C@H]1CC[C@H](Nc2cc(NC3CC3)c3ncc(C(=O)Nc4ccnc(Cl)c4)n3n2)CC1 :: 0.4
CCN(C)C(=O)N[C@H]1CC[C@H](Nc2cc(NC3CC3)c3ncc(C(=O)Nc4ccnc(Cl)c4)n3n2)CC1 :: 1.5

[1] O=C(Nc1ccncc1F)c1cnc2c(Nc3cccc(N[C@H]4CC[C@H](O)CC4)n3)cc(N[C@H]3CC[C@H](O)CC3)nn12
[2] N[C@H]1CC[C@H](Nc2cc(NC3CC3)c3ncc(C(=O)Nc4ccncc4F)n3n2)CC1
[3] N[C@@H](CO)C(=O)N[C@H]1CC[C@H](Nc2cc(NC3CC3)c3ncc(C(=O)Nc4ccnc(Cl)c4)n3n2)CC1
Place the items in sequence of falling IC50. Your answer should be the labels, listed in the requested order.
1, 2, 3
